target: T1, human IL-2 (recombinant IL-2, Humanzyme) (human, UniProt P60568 21-153); assay: SPR (Biacore T200), IgG captured by anti-human IgG, IL-2 injected, 25 C, 1:1 Langmuir fit
T1 construct: It may include the signal peptide; also called hIL-2; interleukin-2
T1 sequence (P60568 21-153 limits assumed): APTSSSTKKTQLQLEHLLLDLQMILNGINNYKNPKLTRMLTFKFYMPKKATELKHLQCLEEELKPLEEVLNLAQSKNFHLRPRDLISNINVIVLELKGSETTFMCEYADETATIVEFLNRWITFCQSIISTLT
// reported koff per item
Kindly answer with a numeric value in s⁻¹, unit omitted.

// known answers, use as guide
# binder, property, readoutUnits, numericValue
rows = [
    ("16C3 (antibody, V domains shown) VH: QVQLVQSGGGVVQPGRSLRLSCAASGFTFSNYAMNWVRQAPGKGLEWVTLISYDGSQKYYADSVKGRFTTSRDNSKNTLYLQMNSLRAEDTAVYYCARDSTTLGAFDVWGQGTMVTVSS VL: SYELTQPPSLSVSPGQTATISCSGDAFPRKFAYWYQQKSGQAPVLVIYEDTRRPSGIPERFSGSSSGTMATLTISGAQVEDEADYFCYSTDTTGTHRVFGGGTKLTVL", "koff", "s⁻¹", 0.000619),
    ("F5.1.11 (antibody, V domains shown) VH: QLQLQESGPGLVKPSQTLSLTCTVSGGSISSGGYYWSWIRQHPGKGLEWIGYIYYSGSTYYNPSLKSRVTISVDTSKNQFSLKLSSVTAADTAVYYCARTPTVTGDWFDPWGRGTLVTVSS VL: NFMLTQPHSVSESPGKTVTISCTRSSGSIASNYVQWYQQRPGSSPTTVIYEDNQRPSGVPDRFSGSIDSSSNSASLTISGLKTEDEADYYCQSYDSSNVVFGGGTKLTVL", "koff", "s⁻¹", 0.00688),
    ("d1C7 (antibody, V domains shown, Only the variable domains are tied to the clone; also called clone d1C7) VH: QVQLVQSGAEVKKPGSSVKVSCKASGGTFSSYAISWVRQAPGQGLEWMGGIIPIFGTANYAQKFQGRVTITADESTSTAYMELSSLRSEDTAVYYCARVDRYYNWNYFLGSFDYWGQGTLVTVSS VL: SYVLTQPPSVSVAPGKTARITCGGNNIRSKSVHWYQQKPGQAPVVVIYYDSDRPSGIPERISGSNSGNTATLTISRVEAGDEADYFCQVWDSSSDHHVFGGGTKLTVL", "koff", "s⁻¹", 0.000607),
]

Field: next binder
Give the measured koff of F4.7.062 (antibody, V domains shown) VH: QVQLQESGPGLVKPSQTLSLTCTVSGGSISSGGYYWSWIRQHPGKGLEWIGYIYYSGSTYYNPSLKSRVTISVDTSKNQFSLKLSSVTAADTAVYYCARTPTVTGDWFDPWGQGTLVTVSS VL: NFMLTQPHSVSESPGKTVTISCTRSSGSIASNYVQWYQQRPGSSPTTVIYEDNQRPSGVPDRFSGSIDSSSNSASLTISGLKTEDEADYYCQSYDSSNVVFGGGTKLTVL .
0.0058
